CC50 at 48 h for assorted molecules
PROCEDURE_SUMMARY: Cytotoxicity against human HG23 cells after 48 hrs
Type: cell-based
CONDITION_LABEL: read-out: TD50
Your answer is read as µM, so omit the unit and give the number.

{"columns": ["COMPOUND_SMILES", "VALUE_MEASURED"],
 "data": [
  ["COC(=O)C1CCN(C(=O)CN2CCN(Cc3cccc(Oc4ccccc4)c3)S2(=O)=O)CC1", 156],
  ["CS(=O)(=O)N1CCN(CCN2CCN(Cc3cccc(Oc4ccccc4)c3)S2(=O)=O)CC1", 12.2]
]}

For the molecule O=S1(=O)N(CCN2CCN(Cc3ccccc3)CC2)CCN1Cc1cccc(Oc2ccccc2)c1 , what CC50 at 48 h is on record?
11.4

Fill in the blank: the reported CC50 at 48 h of O=S1(=O)N(CCN2CCCCC2)CCN1Cc1cccc(Oc2ccccc2)c1 is ____.
12.3

Looking for the measured CC50 at 48 h of O=S1(=O)N(CCN2CCN(CCN3CCN(Cc4cccc(Oc5ccccc5)c4)S3(=O)=O)CC2)CCN1Cc1cccc(Oc2ccccc2)c1 , can you help?
5.1

So what's the measured CC50 at 48 h for this one? O=S(=O)(Cc1ccccc1)N1CCN(CCN2CCN(Cc3cccc(Oc4ccccc4)c3)S2(=O)=O)CC1
9.3

Need CC50 at 48 h, item O=C(O)C1CCN(C(=O)CN2CCN(Cc3cccc(Oc4ccccc4)c3)S2(=O)=O)CC1
80.5

====

Catalogue of EC50 readings, one per entry.
Test system: Norovirus
PROCEDURE_SUMMARY: Antiviral activity against Norovirus infected in human HG23 cells assessed as inhibition of viral replication after 24 hrs by quantitative RT-PCR analysis
Assay type: functional
CONDITION_LABEL: HG23, 24 h, read-out: ED50 (the source's name)

{"columns": ["COMPOUND_SMILES", "EC50"],
 "data": [
  ["O=S(=O)(Cc1ccccc1)N1CCN(CCN2CCN(Cc3cccc(Oc4ccccc4)c3)S2(=O)=O)CC1", "5.3 µM"]
]}

Name the recorded EC50 for O=S1(=O)N(CCN2CCN(CCN3CCN(Cc4cccc(Oc5ccccc5)c4)S3(=O)=O)CC2)CCN1Cc1cccc(Oc2ccccc2)c1 .
0.4 µM

What EC50 value was documented for this molecule, O=C(c1cccc(Oc2ccccc2)c1)N1CCN(CCN2CCN(Cc3cccc(Oc4ccccc4)c3)S2(=O)=O)CC1 ?
6.2 µM

So what does the record say about EC50 for O=S1(=O)N(CCN2CCN(Cc3cccc(Oc4ccccc4)c3)S2(=O)=O)CCN1Cc1cccc(Oc2ccccc2)c1 ?
1.5 µM

Look up EC50: CCOC(=O)N1CCN(CCN2CCN(Cc3cccc(Oc4ccccc4)c3)S2(=O)=O)CC1
5.8 µM

====

PROCEDURE_SUMMARY: Therapeutic index, ratio of TD50 for human HG23 cells to ED50 for Norovirus infected in human HG23 cells
Assay type: cell-based
CONDITION_LABEL: read-out: Ratio TD50/ED50
MEASUREMENT_TYPE: selectivity ratio

Use these answered entries as a reference point.
{"columns": ["COMPOUND_SMILES", "selectivity ratio"],
 "data": [
  ["CCCCS(=O)(=O)N1CCN(CCN2CCN(Cc3cccc(Oc4ccccc4)c3)S2(=O)=O)CC1", "< 10"],
  ["O=C(c1cccc(Oc2ccccc2)c1)N1CCN(CCN2CCN(Cc3cccc(Oc4ccccc4)c3)S2(=O)=O)CC1", "< 10"]
]}

Which measured selectivity ratio value corresponds to O=S(=O)(Cc1ccccc1)N1CCN(CCN2CCN(Cc3cccc(Oc4ccccc4)c3)S2(=O)=O)CC1 ?
< 10

Consider the compound shown here: CS(=O)(=O)N1CCN(CCN2CCN(Cc3cccc(Oc4ccccc4)c3)S2(=O)=O)CC1 What is its recorded selectivity ratio?
< 10

====

Test system: Norovirus
PROCEDURE_SUMMARY: Antiviral activity against Norovirus infected in human HG23 cells assessed as inhibition of viral replication after 24 hrs by quantitative RT-PCR analysis
Type: functional
CONDITION_LABEL: HG23, 24 h, read-out: ED50 (the source's name)
Threshold 6 µM. EC50 below it: 1. EC50 at it or above: 0.

Example results:
{"columns": ["COMPOUND_SMILES", "DISCRETE_LABEL"],
 "data": [
  ["CCN1CCN(C(=O)CN2CCN(Cc3cccc(Oc4ccccc4)c3)S2(=O)=O)CC1", 1],
  ["O=C(c1ccc(Cl)cc1)N1CCN(CCN2CCN(Cc3cccc(Oc4ccccc4)c3)S2(=O)=O)CC1", 0],
  ["O=S1(=O)N(CCN2CCN(Cc3ccccc3)CC2)CCN1Cc1cccc(Oc2ccccc2)c1", 1],
  ["O=C(O)C1CCN(CCN2CCN(Cc3cccc(Oc4ccccc4)c3)S2(=O)=O)CC1", 0],
  ["O=C(c1ccc(F)cc1)N1CCN(CCN2CCN(Cc3cccc(Oc4ccccc4)c3)S2(=O)=O)CC1", 0],
  ["O=S1(=O)N(CCN2CCCCC2)CCN1Cc1cccc(Oc2ccccc2)c1", 1],
  ["CS(=O)(=O)N1CCN(CCN2CCN(Cc3cccc(Oc4ccccc4)c3)S2(=O)=O)CC1", 1],
  ["CCCCS(=O)(=O)N1CCN(CCN2CCN(Cc3cccc(Oc4ccccc4)c3)S2(=O)=O)CC1", 1]
]}

Strictly below 6 µM in EC50? COC(=O)C1CCN(CCN2CCN(Cc3cccc(Oc4ccccc4)c3)S2(=O)=O)CC1
1

Is 6 µM strictly greater than the compound's reported EC50? compound: O=S1(=O)N(CCN2CCOCC2)CCN1Cc1cccc(Oc2ccccc2)c1
1

====

Here the recorded CC50 at 48 h is given for each entry.
PROCEDURE_SUMMARY: Cytotoxicity against human HG23 cells after 48 hrs
Format: cell-based
CONDITION_LABEL: read-out: TD50
Write the answer as a number in µM, unit excluded.

Below, each entry is followed by its recorded CC50 at 48 h result.
{"columns": ["COMPOUND_SMILES", "CC50 at 48 h (µM)"],
 "data": [
  ["COC(=O)C1CCN(CCN2CCN(Cc3cccc(Oc4ccccc4)c3)S2(=O)=O)CC1", 180],
  ["O=C(c1cccc(Oc2ccccc2)c1)N1CCN(CCN2CCN(Cc3cccc(Oc4ccccc4)c3)S2(=O)=O)CC1", 32.9],
  ["O=C(c1ccc(F)cc1)N1CCN(CCN2CCN(Cc3cccc(Oc4ccccc4)c3)S2(=O)=O)CC1", 80.8],
  ["O=S1(=O)N(CCN2CCNCC2)CCN1Cc1cccc(Oc2ccccc2)c1", 14.6],
  ["CCCCS(=O)(=O)N1CCN(CCN2CCN(Cc3cccc(Oc4ccccc4)c3)S2(=O)=O)CC1", 11.1]
]}

Item under review: O=S1(=O)N(CCN2CCN(Cc3cccc(Oc4ccccc4)c3)S2(=O)=O)CCN1Cc1cccc(Oc2ccccc2)c1 . Reported CC50 at 48 h?
8.5

What does the record list as CC50 at 48 h for O=C(O)C1CCN(CCN2CCN(Cc3cccc(Oc4ccccc4)c3)S2(=O)=O)CC1 ?
210

====

The compounds listed here are annotated with their EC50.
System: Norovirus
PROCEDURE_SUMMARY: Antiviral activity against Norovirus infected in human HG23 cells assessed as inhibition of viral replication after 24 hrs by quantitative RT-PCR analysis
Assay type: functional
CONDITION_LABEL: HG23, 24 h, read-out: ED50 (the source's name)
Give the quantity in µM, number only.

{"columns": ["COMPOUND_SMILES", "TESTED_SYSTEM", "VALUE_MEASURED"],
 "data": [
  ["O=S1(=O)N(CCN2CCNCC2)CCN1Cc1cccc(Oc2ccccc2)c1", "Norovirus", 5.3]
]}

Name the recorded EC50 for COC(=O)C1CCN(C(=O)CN2CCN(Cc3cccc(Oc4ccccc4)c3)S2(=O)=O)CC1 .
4.2

====

PROCEDURE_SUMMARY: Therapeutic index, ratio of TD50 for human HG23 cells to ED50 for Norovirus infected in human HG23 cells
Format: cell-based
CONDITION_LABEL: read-out: Ratio TD50/ED50
MEASUREMENT_TYPE: selectivity ratio

{"columns": ["COMPOUND_SMILES", "selectivity ratio"],
 "data": [
  ["O=S1(=O)N(CCN2CCNCC2)CCN1Cc1cccc(Oc2ccccc2)c1", "< 10"],
  ["O=C(c1ccc(F)cc1)N1CCN(CCN2CCN(Cc3cccc(Oc4ccccc4)c3)S2(=O)=O)CC1", "< 10"],
  ["CCN1CCN(C(=O)CN2CCN(Cc3cccc(Oc4ccccc4)c3)S2(=O)=O)CC1", 24],
  ["O=S1(=O)N(CCN2CCN(Cc3ccccc3)CC2)CCN1Cc1cccc(Oc2ccccc2)c1", "< 10"],
  ["COC(=O)C1CCN(C(=O)CN2CCN(Cc3cccc(Oc4ccccc4)c3)S2(=O)=O)CC1", 39]
]}

Param item = CCOC(=O)N1CCN(CCN2CCN(Cc3cccc(Oc4ccccc4)c3)S2(=O)=O)CC1 ; retrieve measured selectivity ratio.
< 10

May I ask what selectivity ratio has been recorded for O=C(c1ccc(Cl)cc1)N1CCN(CCN2CCN(Cc3cccc(Oc4ccccc4)c3)S2(=O)=O)CC1 ?
< 10
